experiment: Cytotoxicity evaluation (cell number in Coulter after 96 hours); format: cell-based; conditions: human, mt4 cells
Give measured CC50 at 96 h for each item. Keep answers brief.
One number for each entry, in µM.

Give me CC50 at 96 h for each of these compounds, listed below.
1. CCCCCC[C@H]([C@H](C)O)n1cnc2c(N)ccnc21 (relative stereo)
2. CCCCCC[C@H]([C@H](C)O)n1cnc2c(N)ncnc21 (relative stereo) [EHNA, 9-(erythro-2-hydroxy-3-nonyl) adenine]
3. CCCCCC[C@H]([C@H](C)O)n1ccc2c(N)ncnc21 (relative stereo)

75
35
50

---

assay: Cytotoxicity evaluation (cell number in Coulter after 96 hours); type: cell-based; conditions: human, mt4 cells; in association with 125 µM of CF; Fig. 3; read-out: MNTD of ddAdo
Readout Label: MNTC at 96 h (µM)
One number for each entry, in µM.

Can you look up the measured MNTC at 96 h of `Nc1ncnc2c1ncn2[C@H]1CC[C@@H](CO)O1` for me?
60

---

test: Cytotoxicity evaluation (cell number in Coulter after 96 hours); type: cell-based; details: human, c8166 cells, MNTD
Readout Label: MNTC at 96 h

The cases that follow already have their MNTC at 96 h on record.
OC[C@H]1O[C@@H](n2cnc3c2N=CNC[C@H]3O)[C@H](O)[C@@H]1O [CF, coformycin]	> 250 µM
Nc1ncnc2c1ncn2[C@H]1CC[C@@H](CO)O1 [ddAdo, 2',3'-didesoxyadenosine]	> 1000 µM
OC[C@@H]1CC[C@H](n2cnc3c(O)ncnc32)O1 [ddIno, 2',3'-didesoxy-inosine, reference compound]	> 1000 µM

# get_value(readout='MNTC at 96 h', item= CCCCCC[C@H]([C@H](C)O)n1cnc2c(N)ncnc21 (relative stereo) [EHNA, 9-(erythro-2-hydroxy-3-nonyl) adenine] )
15 µM

---

assay: Cytotoxicity evaluation (cell number in Coulter after 96 hours); type: cell-based; conditions: human, c8166 cells, maxima non cytotoxic doses (MNTD)
Readout Label: MNTC at 96 h

Nc1ncnc2c1ncn2[C@H]1CC[C@@H](CO)O1	≥ 1 mM

Look up MNTC at 96 h: OC[C@@H]1CC[C@H](n2cnc3c(O)ncnc32)O1 [ddIno, 2',3'-didesoxy-inosine, reference compound]
≥ 1 mM

---

test: Cytotoxicity evaluation (cell number in Coulter after 96 hours); type: cell-based; settings: human, mt4 cells, MNTD
Readout Label: MNTC at 96 h

# example entries with known answers
OC[C@@H]1CC[C@H](n2cnc3c(O)ncnc32)O1 [ddIno, 2',3'-didesoxy-inosine, reference compound]	> 1 mM
Nc1ncnc2c1ncn2[C@H]1CC[C@@H](CO)O1 [ddAdo, 2',3'-didesoxyadenosine]	> 1 mM

Item under review: OC[C@H]1O[C@@H](n2cnc3c2N=CNC[C@H]3O)[C@H](O)[C@@H]1O [CF, coformycin] . Reported MNTC at 96 h?
> 0.25 mM
